# system.tested: T1, IL-11 (UniProt P20809 22-199, limits assumed)
# T1 construct: also called IL-11 protein; IL-11 antigen
# T1 sequence (looked up): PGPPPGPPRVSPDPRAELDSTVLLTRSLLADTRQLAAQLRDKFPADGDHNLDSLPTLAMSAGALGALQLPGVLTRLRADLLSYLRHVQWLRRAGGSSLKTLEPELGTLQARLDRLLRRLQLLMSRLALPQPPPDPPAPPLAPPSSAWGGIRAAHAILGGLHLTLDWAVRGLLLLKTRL
# test.summary: SPR Biacore, scFv captured, IL-11 400 nM
recorded.endpoint: pKd
pKd (log units): -log10 of the concentration in mol/L.

Illustrative cases are given below, each with its answer.
binder: “VH1+VL3”-scFv (scFv) scFv: QVQLVQSGAEVKKPGASVKVSCKASDYTFTNYWLGWVRQAPGQGLEWMGHIYPGGGYTNYNEKFKGRVTMTRDTSTSTVYMELSSLRSEDTAVYYCARVRSGNDALDFWGQGTLVTVSSGGGGSGGGGSGGGGSEIVLTQSPATLSLSPGERATLSCRASESVDEYGISFMNWFQQKPGQAPRLLIYSASNQGSGIPARFSGSGSGTDFTLTISSLEPEDFAVYFCQQSKEVPWTFGGGTKLEIK
numeric.value: 7.91
--
binder: “VH3+VL2”-scFv (scFv) scFv: QVQLVQSGAEVKKPGASVKVSCKASDYTFTNYWLGWVRQAPGQGLEWIGHIYPGGGYTNYNEKFKGRATLTADTSTSTVYMELSSLRSEDTAVYFCARVRSGNDALDFWGQGTLVTVSSGGGGSGGGGSGGGGSEIVLTQSPATLSLSPGERATLSCRASESVDEYGISFMNWYQQKPGQAPRLLIYSASNQGSGIPARFSGSGSGTDFTLTISSLEPEDFAVYFCQQSKEVPWTFGGGTKLEIK
numeric.value: 7.84

// lookup pKd for “VH3+VL1”-scFv (scFv) scFv: QVQLVQSGAEVKKPGASVKVSCKASDYTFTNYWLGWVRQAPGQGLEWIGHIYPGGGYTNYNEKFKGRATLTADTSTSTVYMELSSLRSEDTAVYFCARVRSGNDALDFWGQGTLVTVSSGGGGSGGGGSGGGGSEIVLTQSPATLSLSPGERATLSCRASESVDEYGISFMNWYQQKPGQAPRLLIYSASNQGSGIPARFSGSGSGTDFTLTISSLEPEDFAVYYCQQSKEVPWTFGGGTKLEIK
7.65
